- assayed-target: Programmed cell death protein 1/Programmed cell death 1 ligand 1 (Homo sapiens) (UniProt Q15116+Q9NZQ7)
- protocol-description: Inhibition of PD-1/PD-L1 (unknown origin) interaction assessed as inhibition rate at 0.1 uM by HTRF assay relative to control
- Format: protein-complex assay
inhibition: recorded values
Your answer should be a plain number; it is taken to be in %.

Here are 3 molecules together with their reported answers.
Sample CCCNNC(=O)c1ccc(NCc2ccc(-c3cccc(-c4ccccc4)c3C)nc2OC)c(C)c1 ; inhibition observed: -0.25

Sample CCCNNC(=O)CNCc1ccc(-c2cccc(-c3ccccc3)c2C)nc1OC ; inhibition observed: 19.5

Sample CCCNNC(=O)C1CCN(Cc2ccc(-c3cccc(-c4ccccc4)c3C)nc2OC)CC1 ; inhibition observed: 21.7

Next:
Sample CCCNNC(=O)c1ccc(NCCNCc2ccc(-c3cccc(-c4ccccc4)c3C)nc2OC)cc1 ; inhibition observed: 4.12

Sample CCCNNC(=O)c1cnc(N2CCC(NCc3ccc(-c4cccc(-c5ccccc5)c4C)nc3OC)CC2)cn1 ; inhibition observed: 7.82

Sample CCCNNC(=O)c1cnc(N2CC(NCc3ccc(-c4cccc(-c5ccccc5)c4C)nc3OC)C2)cn1 ; inhibition observed: 13.5

====

- Test system: B16-F10
- protocol-description: Antiproliferative activity against mouse B16-F10 cells assessed as cell growth inhibition incubated for 48 hrs by MTT assay
- Format: functional, cell-based
- test-parameters: B16-F10, 48 h
quantity-kind: IC50 (µM)

1. CCCNNC(=O)c1cnc(NCCNCc2ccc(-c3cccc(-c4ccccc4)c3C)nc2OC)cn1
2. CCCNNC(=O)CCCNCc1ccc(-c2cccc(-c3ccccc3)c2C)nc1OC
Please tell me which of the two, 1 or 2 , has the higher reported IC50 value. // caller expects the label of the chosen entry
1
(1: 6.93 µM, 2: 2.33 µM)

====

inhibition: recorded values
- assayed-target: Programmed cell death protein 1/Programmed cell death 1 ligand 1 (Homo sapiens) (UniProt Q15116+Q9NZQ7)
- protocol-description: Inhibition of PD-1/PD-L1 (unknown origin) interaction assessed as inhibition rate at 0.1 uM by HTRF assay relative to control
- Type: protein-complex assay
Your answer should be a plain number; it is taken to be in %.

Here are 3 compounds together with their reported answers.
Sample CCCNNC(=O)CCCNCc1ccc(-c2cccc(-c3ccccc3)c2C)nc1OC ; inhibition observed: 55.4

Sample CCCNNC(=O)CCCCCNCc1ccc(-c2cccc(-c3ccccc3)c2C)nc1OC ; inhibition observed: 37.3

Sample CCCNNC(=O)c1cnc(NCCNCc2ccc(-c3cccc(-c4ccccc4)c3C)nc2OC)cn1 ; inhibition observed: 46

Next:
Sample CCCNNC(=O)c1cnc(N(C)CCN(C)Cc2ccc(-c3cccc(-c4ccccc4)c3C)nc2OC)nc1 ; inhibition observed: 5.96

Sample CCCNNC(=O)c1cnc(NCCNCc2ccc(-c3cccc(-c4ccccc4)c3C)nc2OC)nc1 ; inhibition observed: 44.5

====

- assayed-target: Programmed cell death protein 1/Programmed cell death 1 ligand 1 (Homo sapiens, UniProt Q9NZQ7)
- Sequence (Q15116 whole entry): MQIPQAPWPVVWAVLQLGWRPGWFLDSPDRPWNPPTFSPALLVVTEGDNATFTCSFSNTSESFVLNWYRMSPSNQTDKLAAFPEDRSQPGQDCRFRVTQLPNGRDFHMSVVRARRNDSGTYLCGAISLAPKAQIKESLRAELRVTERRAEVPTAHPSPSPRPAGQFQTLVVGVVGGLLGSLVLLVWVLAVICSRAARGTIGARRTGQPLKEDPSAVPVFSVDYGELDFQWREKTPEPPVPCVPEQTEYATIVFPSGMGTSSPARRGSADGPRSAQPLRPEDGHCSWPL
- Sequence (Q9NZQ7 whole entry): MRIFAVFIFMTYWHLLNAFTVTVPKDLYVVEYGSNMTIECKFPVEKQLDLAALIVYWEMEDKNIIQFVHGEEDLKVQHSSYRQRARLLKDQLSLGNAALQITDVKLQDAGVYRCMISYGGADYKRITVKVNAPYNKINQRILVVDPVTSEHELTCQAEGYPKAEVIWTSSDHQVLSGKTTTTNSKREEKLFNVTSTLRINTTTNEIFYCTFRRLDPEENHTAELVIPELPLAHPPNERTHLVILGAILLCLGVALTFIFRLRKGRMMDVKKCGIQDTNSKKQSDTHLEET
- protocol-description: Inhibition of PD-1/PD-L1 (unknown origin) interaction assessed as inhibition rate at 1 uM by HTRF assay relative to control
- Assay type: protein-complex assay
quantity-kind: IC50 (nM)
Your answer should be a plain number; it is taken to be in nM.

Sample Cc1c(COc2cc(OCc3cccc(C#N)c3)c(CNC(C)(C)C(=O)O)cc2Cl)cccc1-c1ccccc1 ; IC50 observed: 68.3

Switching to the query record.
Sample CCCNNC(=O)CCCNCc1ccc(-c2cccc(-c3ccccc3)c2C)nc1OC ; IC50 observed: 89.4
